target.of.assay: human glucagon receptor (Homo sapiens)
Construct: made in house; host or cells: FreeStyle CHO cells, transient transfection with pMSRαneo/hGCGR; membrane fraction (35,000 rpm pellet)
method.notes: Glucagon binding inhibitory activity ([125I]-glucagon binding to glucagon receptor membrane protein)
cond: test compound 10 μM; 0.4% DMSO = 0%, non-labeled glucagon 1 μM = 100%; read-out: inhibitory rate (%) at 10 μM
reported.property: inhibition at 10 µM (%)
Field: numeric (%). Do not append units.

// inhibition at 10 µM lookup, key: COc1cccc2cc(C(Nc3ccc(C(=O)N(C)CCC(=O)O)cc3)C3CCCCC3)oc12 (stereo not shown)
62

// inhibition at 10 µM lookup, key: Cc1c(C(Nc2ccc(C(=O)N(C)CCC(=O)O)cc2)C(C)C)oc2ccc(OCc3ccccc3)cc12 (stereo not shown)
82

// inhibition at 10 µM lookup, key: Cc1c(C(Nc2ccc(C(=O)NCCC(=O)O)cc2)C2CCCCC2)oc2ccc(OCc3ccnc(F)c3)cc12 (stereo not shown)
86

// inhibition at 10 µM lookup, key: Cc1c(C(Nc2ccc(C(=O)NCCC(=O)O)cc2)C2CCCCC2)oc2ccc(OCc3ccccc3)cc12 (stereo not shown)
79

// inhibition at 10 µM lookup, key: Cc1c(C(Nc2ccc(C(=O)N(C)CCC(=O)O)cc2)C2CCCCC2)oc2ccc(OCCCS(C)(=O)=O)cc12 (stereo not shown)
76

// inhibition at 10 µM lookup, key: CC(C)c1nn(-c2ccc(C(F)(F)F)cn2)cc1C(Nc1ccc(C(=O)NCCC(=O)O)cc1)C1CCCCC1 (stereo not shown)
72

// inhibition at 10 µM lookup, key: CCc1c(C(CC(C)C)Nc2ccc(C(=O)N(C)CCC(=O)O)cc2)oc2ccccc12 (stereo not shown)
62

###

target.of.assay: human glucagon receptor (Homo sapiens, UniProt P47871)
Construct: made in house; host or cells: FreeStyle CHO cells, transient transfection with pMSRαneo/hGCGR; membrane fraction (35,000 rpm pellet)
Sequence (P47871 26-477): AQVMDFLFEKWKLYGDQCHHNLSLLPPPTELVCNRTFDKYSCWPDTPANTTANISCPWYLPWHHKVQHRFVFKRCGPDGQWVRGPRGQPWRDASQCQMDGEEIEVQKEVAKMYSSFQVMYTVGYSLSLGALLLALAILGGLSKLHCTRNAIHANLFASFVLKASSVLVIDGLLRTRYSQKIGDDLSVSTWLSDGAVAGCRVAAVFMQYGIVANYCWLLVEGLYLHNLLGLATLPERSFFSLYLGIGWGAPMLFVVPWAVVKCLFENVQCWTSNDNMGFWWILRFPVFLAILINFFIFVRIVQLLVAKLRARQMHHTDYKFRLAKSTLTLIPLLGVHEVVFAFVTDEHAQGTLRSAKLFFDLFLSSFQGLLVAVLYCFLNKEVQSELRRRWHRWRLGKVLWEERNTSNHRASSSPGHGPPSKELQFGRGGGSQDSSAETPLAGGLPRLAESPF
method.notes: Glucagon binding inhibitory activity ([125I]-glucagon binding to glucagon receptor membrane protein)
cond: test compound 10 μM; 0.4% DMSO = 0%, non-labeled glucagon 1 μM = 100%; read-out: inhibitory rate (%) at 10 μM
reported.property: inhibition at 10 µM (%)
Field: numeric (%). Do not append units.

Worked cases, answers included:
1) COCc1c(C(Nc2ccc(C(=O)N(C)CCC(=O)O)cc2)C2CCCCC2)oc2ccc(F)cc12 (centres unmarked) [Example A48]
66
2) COCc1nn(-c2ccc(C(F)(F)F)cn2)cc1C(Nc1ccc(C(=O)NCCC(=O)O)cc1)C1CCCCC1 (centres unmarked) [Example 29]
77
3) CCc1c(C(CC(C)C)Nc2ccc(C(=O)NCCC(=O)O)cc2)oc2ccccc12 (centres unmarked) [Example A34]
75
4) Cc1c(C(Nc2ccc(C(=O)NCCC(=O)O)nc2)C2CCCCC2)oc2ccc(F)cc12 (centres unmarked) [Example A55]
90
5) Cc1c(C(Nc2ccc(C(=O)NCCC(=O)O)cc2)C2CCCCC2)oc2ccc(OCCCS(C)(=O)=O)cc12 (centres unmarked) [Example A153]
74
6) Cc1c(C(Nc2ccc(C(=O)NCCC(=O)O)cc2)C(C)C)oc2ccc(OCc3ccccc3)cc12 (centres unmarked) [Example A171]
86
7) Cc1c(C(Nc2ccc(C(=O)NCCC(=O)O)nc2)C2CCCCC2)sc2ccccc12 (centres unmarked) [Example A62]
81

# input for lookup
Write down the reported inhibition at 10 µM of CN(CCC(=O)O)C(=O)c1ccc(NC(c2cc3ccccc3s2)C2CCCCC2)cc1 (centres unmarked) [Example A5] , test system: human glucagon receptor (Homo sapiens, UniProt P47871).
77
